Tested on: KM12 colon
Test: NCI tumour cell line growth inhibition, 48 h
Where a SMILES comes first, the peptide text is derived from it. [ ]: non-standard residue; d: D form. pGlu = O=C1CC[CH](C(=O)O)N1
Listed here are molecules together with their documented TGI.
readoutKind: TGI (µM)

[
  {
    "molecule": "CC1C2CC(CC2N)C1(C)C (stereo not given)",
    "censoringQualifier": ">",
    "quantitativeReadout": 100
  },
  {
    "molecule": "CC(=O)NC(C)c1ccc(N=NN2CCCC2)cc1 (stereo not given)",
    "censoringQualifier": ">",
    "quantitativeReadout": 100
  },
  {
    "molecule": "C/C(CC(=O)Nc1ccc(Cl)cc1)=N\\NC(=O)C[n+]1ccccc1",
    "censoringQualifier": ">",
    "quantitativeReadout": 100
  },
  {
    "molecule": "CC(NC(=O)C(Cc1cnc[nH]1)NC(=O)C1CCC(=O)N1)C(N)=O (stereo not drawn) ([pGlu]-His-Ala-NH2; configuration not given here)",
    "censoringQualifier": ">",
    "quantitativeReadout": 100
  },
  {
    "molecule": "O=c1oc2c/c(=C\\c3ccccc3)c(=O)c3cccc1c3-2",
    "censoringQualifier": "=",
    "quantitativeReadout": 56.3
  },
  {
    "molecule": "C=CC[C@@H]1C=C[C@@H](C(=O)OC)n2c(=O)n(-c3ccccc3)c(=O)n21",
    "censoringQualifier": ">",
    "quantitativeReadout": 100
  },
  {
    "molecule": "CN1CCN(C(=O)c2c(NC(=O)NS(=O)(=O)c3ccccc3)sc3c2CCCCC3)CC1",
    "censoringQualifier": "=",
    "quantitativeReadout": 80.1
  },
  {
    "molecule": "COC12OC3CC4(C)C(=CC3OC(OC(C)C1O)C2O)CCC1C4CCC2(C)C(c3ccc(=O)oc3)CCC12O (stereo not given)",
    "censoringQualifier": "=",
    "quantitativeReadout": 0.00739
  },
  {
    "molecule": "O=CC(Br)C(Br)c1ccccc1 (stereo not given)",
    "censoringQualifier": "=",
    "quantitativeReadout": 26
  },
  {
    "molecule": "COc1ccc2oc(=Nc3ccc(F)cc3)c(C(N)=O)cc2c1",
    "censoringQualifier": ">",
    "quantitativeReadout": 100
  }
]

----------
Test system: UACC-257 melanoma
Experiment: NCI tumour cell line growth inhibition, 48 h; in the data active = GI50 below about 0.43 µM; inactive = the rest
Classes used: 1 (active), 0 (inactive)

[
  {
    "compound": "CSc1n(Cc2ccc3ccccc3c2)c(C)c[n+]1Cc1ccc2ccccc2c1",
    "classAssignment": 1
  },
  {
    "compound": "CN1C(=O)C(=Cc2cn(Cc3ccccc3)c3ccccc23)C(=O)N(C)C1=O",
    "classAssignment": 0
  },
  {
    "compound": "CC1(C)CCC[C@]2(C)c3cc(O)ccc3CC[C@@H]12",
    "classAssignment": 0
  },
  {
    "compound": "O=C(O)c1ccc2c3c(ncnc13)-c1ccccc1C2=O",
    "classAssignment": 0
  },
  {
    "compound": "CN[C@@H]1C[C@H]2O[C@@](C)([C@@H]1OC)n1c3ccccc3c3c4c(c5c6ccccc6n2c5c31)C(=O)N[C@H]4O",
    "classAssignment": 1
  },
  {
    "compound": "CCCOC(=O)N[C@H]1CCc2cc(OC)c(OC)c(OC)c2-c2ccc(SC)c(=O)cc21",
    "classAssignment": 0
  },
  {
    "compound": "O=C1NC(=O)C(c2ccc(Cl)cc2)=C1Nc1ccc(Cl)c(C(=O)O)c1",
    "classAssignment": 0
  },
  {
    "compound": "Cc1cc([N+](=O)[O-])ccc1NS(=O)(=O)c1cc(Cl)ccc1Cl",
    "classAssignment": 0
  },
  {
    "compound": "Cc1ccc(C(=O)/C(=C\\c2ccc([N+](=O)[O-])cc2)S(=O)Cc2ccc(F)cc2)cc1 (stereo not given)",
    "classAssignment": 0
  },
  {
    "compound": "COc1ccc(-c2nn(-c3cccc(Cl)c3)cc2-c2c(C#N)c(=O)n3[nH]c(-c4ccc(C)cc4)nc3c2C#N)cc1",
    "classAssignment": 0
  },
  {
    "compound": "COc1ccc([I+]c2ccccc2)cc1",
    "classAssignment": 0
  },
  {
    "compound": "N#Cc1ccc(C2C3=C(CCCC3=O)OC3=C2C(=O)c2ccccc2C3=O)cc1 (stereo not given)",
    "classAssignment": 0
  },
  {
    "compound": "O=C1c2cc(-c3ccccc3)ccc2-c2c1c1ccc([N+](=O)[O-])cc1c(=O)n2CCCBr",
    "classAssignment": 0
  },
  {
    "compound": "C[C@]1(C(=O)O)N[C@H](C(=O)O)CS1",
    "classAssignment": 0
  },
  {
    "compound": "Cn1c(/C=C(\\C#N)c2cccc(C(F)(F)F)c2)nc2c(N3CCOCC3)nc(Cl)nc21",
    "classAssignment": 0
  }
]
